I'd appreciate it if you could supply % Inhibition values for the items below.
Target: MICB*005 on HCC1534 cells (human); also: test concentration or dose not given here
Experiment: cell-based or functional assay
Answers are plain numbers, in %.

A selection of reference data follows.
| binder | recorded-result |
| --- | --- |
| 1D5v12 (antibody, IgG1, V domains shown, humanized variant of 1D5) VH: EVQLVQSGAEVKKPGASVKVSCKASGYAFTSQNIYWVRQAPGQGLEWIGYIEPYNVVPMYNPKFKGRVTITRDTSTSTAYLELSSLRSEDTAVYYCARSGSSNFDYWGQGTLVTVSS VL: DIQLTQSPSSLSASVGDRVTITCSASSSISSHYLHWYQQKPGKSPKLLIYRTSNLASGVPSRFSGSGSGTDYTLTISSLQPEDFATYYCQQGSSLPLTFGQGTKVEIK | 27 |
| 1D5v19 (antibody, IgG1, V domains shown, humanized variant of 1D5) VH: EVQLVQSGAEVKKPGASVKVSCKASGYAFTSQNIYWVRQAPGQGLEWIGYIEPYNVVPMYNPKFKGRATLTVDKSTSTAYLELSSLRSEDTAVYYCARSGSSNFDYWGQGTLVTVSS VL: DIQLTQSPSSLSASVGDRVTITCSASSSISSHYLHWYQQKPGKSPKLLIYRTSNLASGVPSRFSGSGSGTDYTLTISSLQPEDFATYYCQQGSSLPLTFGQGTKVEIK | 40 |

Let me know recorded % Inhibition for 15F11v4 (antibody, IgG1, V domains shown, humanized variant of 15F11) VH: EIQLVQSGAEVKKPGASVKVSCKPSGYAFTSNNIYWVRQAPGQGLEWIGYIDPYIGRIIYNQQFKDRATLTVDKSTSTAYLELSSLRSEDTAVYYCSRSGERSNFDYWGQGTLVTVSS VL: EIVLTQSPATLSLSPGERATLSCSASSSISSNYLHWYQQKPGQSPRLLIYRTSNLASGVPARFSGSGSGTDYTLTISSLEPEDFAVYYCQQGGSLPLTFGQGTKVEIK , thanks.
44
